Data origin: patent US20110206607A1

- TESTED_ON: human CB2 (Homo sapiens, UniProt P34972)
- Construct: expressed in transfected cells; host or cells: HEK-293T (transient transfection, membrane preparation)
- Sequence (P34972 whole entry): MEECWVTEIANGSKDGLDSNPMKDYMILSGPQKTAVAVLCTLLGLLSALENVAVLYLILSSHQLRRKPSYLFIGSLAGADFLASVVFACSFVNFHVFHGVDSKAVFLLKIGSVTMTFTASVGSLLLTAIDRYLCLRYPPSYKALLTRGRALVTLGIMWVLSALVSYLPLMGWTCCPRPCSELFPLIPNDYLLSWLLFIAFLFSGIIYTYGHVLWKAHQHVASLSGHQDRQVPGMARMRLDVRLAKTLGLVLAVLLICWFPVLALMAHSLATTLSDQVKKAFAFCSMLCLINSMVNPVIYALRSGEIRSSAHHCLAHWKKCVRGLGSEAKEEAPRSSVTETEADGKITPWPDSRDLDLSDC
- EXPERIMENTAL_PROTOCOL: CB2 receptor binding assay, block of [3H]-CP 55,940 binding
- SETUP_CONDITIONS: membranes of HEK-293T cells transfected with human CB2 cDNA; 1.5 nM [3H]-CP 55,940
PARAMETER_MEASURED: pKi

COc1cc(-c2nc3ccncn3c2Nc2ccc3c(c2)OCCO3)ccc1O :: 6.5
COc1cnc2nc(-c3c(F)cncc3F)c(Nc3ccc4c(c3)OCCO4)n2c1 :: 6.5
Cc1ccn2c(Nc3ccc4c(c3)OCCO4)c(-c3c(F)cccc3Cl)nc2c1 :: 7.3

Query pKi for COc1ccc2nc(-c3c(Cl)cncc3Cl)c(Nc3ccc4c(c3)OCCO4)n2c1
6.9
